- Test system: Mycobacterium tuberculosis
- Protocol: AntiMycobacterium tuberculosis activity 1-week 7H9/glucose/BSA/Tx MIC (uM)
- Assay type: functional
- Condition Description: 168 h
Please go through the items and note down their MIC.

[[record]]
compound = "CCCCOC(=O)Nc1cc2nc(C3CCCCC3)[nH]c2cc1N1CCCC1"
experimental_system = "Mycobacterium tuberculosis"
assay_readout = "MIC"
recorded_value = "0.2 µM"

[[record]]
compound = "COc1ccc(Cn2cnc3c(-c4ccco4)nc(Cl)nc32)cc1"
experimental_system = "Mycobacterium tuberculosis"
assay_readout = "MIC"
recorded_value = "> 50 µM"

[[record]]
compound = "O=C(NC1CCCCC1)N1CCN(Cc2ccc3c(c2)OCO3)CC1"
experimental_system = "Mycobacterium tuberculosis"
assay_readout = "MIC"
recorded_value = "> 50 µM"

[[record]]
compound = "CN1CCN(CCCOc2ncc(Nc3ncc(-c4ccc(C(F)(F)F)c(F)c4)nc3C(N)=O)cn2)CC1"
experimental_system = "Mycobacterium tuberculosis"
assay_readout = "MIC"
recorded_value = "1.2 µM"

[[record]]
compound = "O=C(Nc1cccnc1)c1c(O)c2cccc3c2n(c1=O)CC3"
experimental_system = "Mycobacterium tuberculosis"
assay_readout = "MIC"
recorded_value = "6.25 µM"

[[record]]
compound = "COc1cc(Br)cc2cc(C(=O)Nc3cccc(C(F)(F)F)c3)c(=O)oc12"
experimental_system = "Mycobacterium tuberculosis"
assay_readout = "MIC"
recorded_value = "1.56 µM"


# return MIC for each item in the list
1. O=C(NCc1cc(Cl)cc(Cl)c1)c1c(C(F)(F)F)nc2ccccn12
2. Cn1c(=O)c2c(S(C)(=O)=O)snc2n(C)c1=O
3. Brc1c(-c2ccc3c(c2)OCO3)nc2ncccn12
4. COc1cc(C(F)(F)F)nc2ccc(C)c(N)c12
5. CCCn1nnc(NC(=O)COc2ccc(C3CCCCC3)cc2)n1

## Output
["> 50 µM", "12.5 µM", "25 µM", "25 µM", "19 µM"]

# return MIC for each item in the list
1. COc1cccc(-c2nc3c(N4CCCC4)cccc3n2CC2CCCN2)n1 (stereo unspecified)
2. CCOC(=O)NC(=O)c1ccsc1NC(=O)c1nc2ccccc2s1
3. CCC(C)NC(=O)c1ccc(NC(=O)C2(c3ccccc3)CCCC2)cc1 (stereo unspecified)

## Output
25 µM
0.2 µM
> 50 µM

# return MIC for each item in the list
1. CCC(Sc1nc2ccccc2o1)C(=O)Nc1nnc(C)s1 (stereo unspecified)
2. O=C(C1CCN(c2nnc(-n3cccc3)s2)CC1)N1CCC(Cc2ccccc2)CC1
3. COc1ccc2nc(C)cc(OCC(=O)NCc3ccccc3)c2c1

## Output
> 50 µM
0.1 µM
> 50 µM

====

- System: Onchocerca volvulus
- Protocol: AntiOnchocerca activity O. volvulus L3 Molting assay: inhibition at 10 uM (%)
- Format: functional
Hi! Could you tag entries with Inhibition below 90% as 1 (yes), and those at or above as 0 (no)? Much appreciated.

## Input Does "CC(C)(C)c1ccc(N[C@@H]2CCCC[C@H]2NC(=O)c2ccco2)cc1" have Inhibition strictly under 90%?
## Output 1 (yes)

## Input Moving on to "COc1ccc(N(CCc2cccc(C)n2)C(=O)C2CCCCC2)cc1"
## Output 0 (no)

## Input Moving on to "CC(=O)N(CCN(C(=O)c1ccc(F)cc1)c1ccccc1)c1ccccc1"
## Output 0 (no)

## Input Moving on to "O=C(Nc1nnc(S)s1)c1cc(Br)ccc1Cl"
## Output 1 (yes)

## Input Moving on to "CCCCc1ccc(NC(=O)Nc2ccc(O[C@H]3CCCC[C@@H]3N(C)c3ccccc3)c(F)c2)cc1"
## Output 0 (no)

## Input Moving on to "COC(=O)c1c(NC(=O)c2cc3ccccc3oc2=O)sc2c1CCN(Cc1ccccc1)C2"
## Output 0 (no)
